assay: Toxicokinetics in rats; assay type: in vivo; conditions: Sprague Dawley, rat, plasma, oral; rats, 0.3 mg/kg, estimated proportional to reported kinetics at 1 mg/kg (US FDA [2012])
measured endpoint: AUC

What value of AUC has been reported for the following compound? C/C(O)=C(\C#N)C(=O)Nc1ccc(C(F)(F)F)cc1 [Teriflunomide]
~33000 ng·h/mL

----------
test system: ESCs and ESC-derived neurons; assay: Dual luminescence reporter test system, all readouts in ESCs and ESC-derived neurons; conditions: mouse, 48 h
Below, each of the molecules is paired with its reported Number of non-cytotoxic changes value.
Hey, just send me the number, nothing else.

Cc1[nH]c2ccccc2c1CCNCc1ccc(/C=C/C(=O)NO)cc1 | 1

Find Number of non-cytotoxic changes (ESCs and ESC-derived neurons) for the entry `CCCC(CCC)C(=O)O`
2

Hello, I am looking for reported Number of non-cytotoxic changes with ESCs and ESC-derived neurons for `O=C1NS(=O)(=O)c2ccccc21` . Could you help?
0

Can you look up Number of non-cytotoxic changes on ESCs and ESC-derived neurons for `Cc1ccc(NC(=O)c2ccc(CN3CCN(C)CC3)cc2)cc1Nc1nccc(-c2cccnc2)n1` ?
3

Give the reported Number of non-cytotoxic changes for `O=C(NC[C@H]1CN(c2ccc(N3CCOCC3=O)cc2)C(=O)O1)c1ccc(Cl)s1` (system: ESCs and ESC-derived neurons).
0

----------
test system: ESCs and ESC-derived neurons; experiment: Dual luminescence reporter test system, all readouts in ESCs and ESC-derived neurons; conditions: mouse, 48 h
Measured Number of non-cytotoxic changes, listed per entry for reference.
Just the number, please, no unit after it.

Examples with their reported Number of non-cytotoxic changes follow.
CC(C)Cc1ccc(C(C)C(=O)O)cc1 (stereo not shown) | 0
CN(C)CCCN1c2ccccc2Sc2ccc(Cl)cc21 | 1
COc1cc2ncnc(Nc3ccc(F)c(Cl)c3)c2cc1OCCCN1CCOCC1 | 0

Okay, now this compound:
Look up Number of non-cytotoxic changes: COc1ccc2[nH]c([S+]([O-])Cc3ncc(C)c(OC)c3C)nc2c1 (stereo not shown)
0

----------
As shown below, each of these compounds has a reported LOAEL ESC DNA value.
System: CGR8-2Luc ESCs
Settings: undifferentiated ESCs, 48 h exposure, PI assay (cytotoxicity)
Source text: Fig. 1 Synopsis of experimental protocols. The impact of compounds on neural promoter activity (FLuc, Firefly Luciferase under the control of the Tα1 promoter), general promoter activity (RLuc, Renilla Luciferase under the control of the EF1α promoter), and amount of DNA (PI, propidium iodide fluorescence in cell homogenates) was investigated in undifferentiated mouse embryonic pluripotent stem cells (ESCs) and on ESC-derived neurons. […]

Field: example entries. Status: answers known.
CC(C)NCC(O)COc1cccc2ccccc12 (stereo not drawn) | >50 µM
CC(C)Cc1ccc(C(C)C(=O)O)cc1 (stereo not drawn) | >50 µM
C[C@]12CC[C@H](O)CC1=CC[C@@H]1[C@@H]2CC[C@]2(C)C(c3cccnc3)=CC[C@@H]12 | >2 µM
CCCC(CCC)C(=O)O | 5000 µM
COC1=C2C[C@@H](C)C[C@H](OC)[C@H](O)[C@@H](C)/C=C(\C)[C@H](OC(N)=O)[C@@H](OC)/C=C\C=C(/C)C(=O)NC(=CC1=O)C2=O | 0.05 µM
Cc1ccc(NC(=O)c2ccc(CN3CCN(C)CC3)cc2)cc1Nc1nccc(-c2cccnc2)n1 | >10 µM
COc1ccc2[nH]c([S+]([O-])Cc3ncc(C)c(OC)c3C)nc2c1 (stereo not drawn) | >50 µM
Cc1[nH]c2ccccc2c1CCNCc1ccc(/C=C/C(=O)NO)cc1 | 0.05 µM

Turning now to a further record.
Given the entry `COCC(=O)O` , report its measured LOAEL ESC DNA.
>50 µM

Attribution: paper PMC5225183
